target: human 5-hydroxytryptamine2C (h5HT2C) receptor (Homo sapiens); construct: expressed in transfected cells; host or cells: CHO (Chinese Hamster Ovary) cells; membrane preparation; test: 5HT2C receptor binding ([125I]DOI displacement, CHO cell membranes); details: [125I]DOI binding, CHO membranes expressing h5HT2C; read-out: Ki (95% confidence interval), reference compounds
Sequence (P28335 33-458): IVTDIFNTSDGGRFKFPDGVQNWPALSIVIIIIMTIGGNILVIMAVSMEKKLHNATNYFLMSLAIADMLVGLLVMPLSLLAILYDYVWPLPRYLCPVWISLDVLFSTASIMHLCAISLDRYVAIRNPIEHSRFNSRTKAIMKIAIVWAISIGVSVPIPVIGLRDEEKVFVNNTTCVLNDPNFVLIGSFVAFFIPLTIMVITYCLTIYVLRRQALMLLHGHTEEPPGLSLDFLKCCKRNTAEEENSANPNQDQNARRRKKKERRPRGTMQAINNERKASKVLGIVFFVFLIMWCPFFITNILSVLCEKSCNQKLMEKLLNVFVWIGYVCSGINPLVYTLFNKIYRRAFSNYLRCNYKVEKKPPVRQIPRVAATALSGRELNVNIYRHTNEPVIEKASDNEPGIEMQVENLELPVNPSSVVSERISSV
reported-endpoint: Ki
Remember to follow the number with its unit.

## Task Look at this compound and give its reported Ki. CSc1ccc2c(c1)C(N1CCN(C)CC1)Cc1ccccc1S2 (stereo not shown) [Methiothepin, reference compound]
## Result 4.6 nM

###

Where a name gives a salt, the structure may show the parent alone.
reported-endpoint: melting point

Check out these entries, answers already filled in.
* c1cc2c3c(c1)CC1CCCCC1N3CCNC2 (stereo not drawn) [Example 2, trans isomer] | 95 °C
* c1cc2c3c(c1)CC1CCCC1N3CCNC2 (stereo not drawn) (as salt: HCl) [Example 1, trans isomer] | 190 °C (dec.)
* c1cc2c3c(c1)C[C@H]1CCCC[C@H]1N3CCNC2 (relative stereo) (as salt: HCl) [Example 2, cis isomer] | 150 to 155 °C

Now for another entry.
## Task Look at this molecule and give its reported melting point. c1cc2c3c(c1)C[C@@H]1CCC[C@@H]1N3CCNC2 (relative stereo) (as salt: HCl) [Example 1, cis isomer]
## Result 180 to 190 °C (dec.)
